# Tested System: Voltage-dependent T-type calcium channel subunit alpha-1H (Homo sapiens, UniProt O95180);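 also: channel activity triggered by adding a high calcium stimulation buffer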
# Sequence (O95180 whole entry): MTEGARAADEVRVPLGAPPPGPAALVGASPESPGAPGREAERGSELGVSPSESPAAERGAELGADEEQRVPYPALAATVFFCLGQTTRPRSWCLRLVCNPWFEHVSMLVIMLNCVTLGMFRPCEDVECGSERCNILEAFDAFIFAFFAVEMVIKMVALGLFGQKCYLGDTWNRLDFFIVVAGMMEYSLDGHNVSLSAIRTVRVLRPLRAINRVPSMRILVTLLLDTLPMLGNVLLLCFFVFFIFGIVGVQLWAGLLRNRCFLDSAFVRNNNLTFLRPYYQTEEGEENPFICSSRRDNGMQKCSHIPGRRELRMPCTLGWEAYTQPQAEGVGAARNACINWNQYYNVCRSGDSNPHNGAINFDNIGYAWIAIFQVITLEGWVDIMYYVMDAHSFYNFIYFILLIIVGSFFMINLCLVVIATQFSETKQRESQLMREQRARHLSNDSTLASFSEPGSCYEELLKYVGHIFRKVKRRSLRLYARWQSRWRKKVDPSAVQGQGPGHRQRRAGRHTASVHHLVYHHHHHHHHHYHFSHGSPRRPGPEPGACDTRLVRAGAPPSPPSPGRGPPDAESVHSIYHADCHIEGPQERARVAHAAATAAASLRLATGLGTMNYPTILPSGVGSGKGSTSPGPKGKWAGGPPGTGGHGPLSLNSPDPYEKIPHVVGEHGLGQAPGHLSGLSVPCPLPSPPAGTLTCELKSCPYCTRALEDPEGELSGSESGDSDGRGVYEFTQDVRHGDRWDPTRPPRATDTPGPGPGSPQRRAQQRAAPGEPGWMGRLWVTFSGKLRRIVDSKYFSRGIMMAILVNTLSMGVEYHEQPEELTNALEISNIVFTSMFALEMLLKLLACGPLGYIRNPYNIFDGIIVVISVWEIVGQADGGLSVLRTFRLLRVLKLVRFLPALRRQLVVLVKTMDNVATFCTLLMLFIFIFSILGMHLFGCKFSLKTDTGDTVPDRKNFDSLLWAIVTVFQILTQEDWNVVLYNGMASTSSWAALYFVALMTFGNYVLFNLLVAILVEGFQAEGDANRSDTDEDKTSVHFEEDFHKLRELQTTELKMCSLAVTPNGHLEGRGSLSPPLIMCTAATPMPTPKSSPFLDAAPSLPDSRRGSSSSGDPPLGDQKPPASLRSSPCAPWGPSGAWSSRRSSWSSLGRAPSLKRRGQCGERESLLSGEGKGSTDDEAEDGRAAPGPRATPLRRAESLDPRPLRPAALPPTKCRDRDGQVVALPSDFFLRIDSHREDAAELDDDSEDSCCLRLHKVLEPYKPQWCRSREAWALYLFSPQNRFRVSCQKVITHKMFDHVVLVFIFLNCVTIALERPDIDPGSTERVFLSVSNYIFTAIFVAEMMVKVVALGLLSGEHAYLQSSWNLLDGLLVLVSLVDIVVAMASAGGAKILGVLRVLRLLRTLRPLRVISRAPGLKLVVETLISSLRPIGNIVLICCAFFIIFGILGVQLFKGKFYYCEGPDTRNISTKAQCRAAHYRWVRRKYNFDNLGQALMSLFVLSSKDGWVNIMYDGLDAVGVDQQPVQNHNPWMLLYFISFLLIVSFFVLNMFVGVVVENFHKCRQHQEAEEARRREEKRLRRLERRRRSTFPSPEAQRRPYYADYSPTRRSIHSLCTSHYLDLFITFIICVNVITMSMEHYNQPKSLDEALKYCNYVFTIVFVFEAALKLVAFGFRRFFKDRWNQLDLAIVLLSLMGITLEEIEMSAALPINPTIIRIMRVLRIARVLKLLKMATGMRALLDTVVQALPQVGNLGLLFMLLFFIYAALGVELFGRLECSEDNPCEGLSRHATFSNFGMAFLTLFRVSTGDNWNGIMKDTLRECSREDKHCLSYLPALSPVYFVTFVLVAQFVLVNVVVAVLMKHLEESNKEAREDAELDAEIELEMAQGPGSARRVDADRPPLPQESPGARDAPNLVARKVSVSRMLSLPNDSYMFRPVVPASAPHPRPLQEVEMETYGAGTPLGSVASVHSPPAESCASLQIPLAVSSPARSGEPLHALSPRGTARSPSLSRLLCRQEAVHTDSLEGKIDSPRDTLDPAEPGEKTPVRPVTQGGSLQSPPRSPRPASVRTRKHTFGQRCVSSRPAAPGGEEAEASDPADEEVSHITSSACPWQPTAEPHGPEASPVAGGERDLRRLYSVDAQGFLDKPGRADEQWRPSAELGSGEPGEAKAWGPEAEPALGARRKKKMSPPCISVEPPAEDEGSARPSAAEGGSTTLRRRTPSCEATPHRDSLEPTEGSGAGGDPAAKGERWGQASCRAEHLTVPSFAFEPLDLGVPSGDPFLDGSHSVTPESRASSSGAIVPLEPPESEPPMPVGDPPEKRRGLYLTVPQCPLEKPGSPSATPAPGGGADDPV
# Format: functional
Active and inactive are the calls of the source.
For each record, write down the corresponding EC50.

Q. So what does the record say about EC50 for COc1ccc(OC)c(NC(=O)CSCc2cnn(-c3ccccc3)c2-n2cccc2)c1 ?
A. 4.18 µM (active)

Q. Endpoint output: EC50 of CC1CCN(S(=O)(=O)c2ccc(NC(=O)Cc3ccccc3)cc2)CC1 . Value?
A. 5.25 µM (active)

Q. Report EC50 for Cc1ccc(-n2nnnc2-c2cnc(N3CCCC3)nc2C(F)(F)F)cc1 please.
A. 8.9 µM (active)

Q. Entry under review: COc1ccccc1OCc1nc(Cc2ccc(Cl)cc2)no1 . Reported EC50?
A. 7.9 µM (active)

Q. Please report the recorded EC50 for O=C(NCC1CCN(c2ccc(S(=O)(=O)N3CCOCC3)cc2)CC1)c1ccc(Cl)cc1 .
A. 21.2 µM (active)

Q. Which measured EC50 value corresponds to O=C(CCCc1c[nH]c2ccccc12)NCc1ccc2c(c1)OCO2 ?
A. 2.31 µM (active)

====

# Tested System: Corticotropin-releasing factor receptor 2/Corticotropin-releasing factor-binding protein (Homo sapiens, UniProt P24387+Q13324)
# Sequence (Q13324 whole entry): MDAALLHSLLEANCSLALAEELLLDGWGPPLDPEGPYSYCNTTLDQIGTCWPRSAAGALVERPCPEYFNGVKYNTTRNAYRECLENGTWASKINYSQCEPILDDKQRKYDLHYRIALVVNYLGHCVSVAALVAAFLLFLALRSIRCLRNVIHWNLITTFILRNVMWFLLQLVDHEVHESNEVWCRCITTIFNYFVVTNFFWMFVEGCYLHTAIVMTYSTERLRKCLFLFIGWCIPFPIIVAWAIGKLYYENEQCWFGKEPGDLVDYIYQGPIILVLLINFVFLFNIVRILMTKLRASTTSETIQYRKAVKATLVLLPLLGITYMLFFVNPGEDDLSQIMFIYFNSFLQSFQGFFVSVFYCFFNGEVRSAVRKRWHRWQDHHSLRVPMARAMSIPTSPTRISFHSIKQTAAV
# Sequence (P24387 whole entry): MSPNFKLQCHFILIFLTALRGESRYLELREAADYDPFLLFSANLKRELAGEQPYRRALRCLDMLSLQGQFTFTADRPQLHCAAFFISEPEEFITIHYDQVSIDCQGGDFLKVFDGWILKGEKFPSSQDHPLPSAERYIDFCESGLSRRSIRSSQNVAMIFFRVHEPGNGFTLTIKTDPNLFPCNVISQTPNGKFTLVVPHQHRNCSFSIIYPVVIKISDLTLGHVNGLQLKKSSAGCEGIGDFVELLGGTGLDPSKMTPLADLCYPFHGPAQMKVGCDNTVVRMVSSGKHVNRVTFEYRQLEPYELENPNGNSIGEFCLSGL
# Protocol: activators of CRF receptor 2 with binding protein – uHTS hits, confirmation (AID 602473)
# Assay type: functional
# Measurement Parameters: read-out: EC50_Mean
Activity calls are given as the source filed them.
Reported Metric: EC50

Q. // returns reported EC50 for input CN(C)c1ccc(C(=O)N/N=C/C23CC[C@@H](O)CC2(O)CC[C@@H]2[C@@H]3CCC3(C)C(C4=CC(=O)OC4)CCC23O)cc1 (some centres undefined)
A. > 53 µM (inactive)

Q. Form field: reported EC50 of O=C(NC(Cc1ccccc1)c1nc2ccccc2[nH]1)c1ccc(Cl)c([N+](=O)[O-])c1 (centres undefined)
A. > 53 µM (inactive)

Q. Any idea what EC50 was measured for CNC(=O)CN(C1CCCCC1)S(=O)(=O)c1ccc(F)cc1 ?
A. > 53 µM (inactive)

Q. Which value of EC50 has been reported for CCOCCCN(CC(=O)NC1CCCC1)C(=O)C(=O)Nc1ccc2c(c1)OCCO2 in the records?
A. > 53 µM (inactive)

Q. Fill in the blank: the reported EC50 of N#CNC(=Nc1cccc(F)c1)SCc1ccccc1 is ____.
A. > 53 µM (inactive)

Q. Suppose we examine the compound Cc1ccc(C)c(N2CCN(S(=O)(=O)c3ccc4c(c3)C(C)(C)C(=O)N4C)CC2)c1 ; what EC50 value has been reported?
A. > 53 µM (inactive)

Q. Need EC50, item COc1cc(NC(=S)NCCC(c2ccccc2)c2ccccc2)c(OC)cc1Cl
A. > 53 µM (inactive)

Q. What EC50 value was documented for this compound, Cc1ccccc1CN(C)C(=O)COC(=O)c1ccc2[nH]c(C)c(C)c2c1 ?
A. > 53 µM (inactive)

Q. Would you kindly share the measured EC50 for Cc1ccc2c(CC(=O)NCC(=O)Nc3c(C)cccc3C)coc2c1 ?
A. > 53 µM (inactive)

====

Field: EC50. Provide a value for each of the compounds that follow.
# Test system: Streptococcus
# Protocol: Group A Streptococcus viability loss, dose response, counter-screen for streptokinase expression inhibitor project, luminescence, BacTiterGlo (AID 1915);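 also: potency for reduction of bacterial viability or growth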
# Format: functional, organism-based
The source made the active and inactive calls.

Q. # query: EC50 of entry O=S(=O)(Nc1ccc(O)c(Sc2nc3ccccc3s2)c1)c1cccc2ccccc12
A. 7.08 µM (active)

Q. Item under review: N#Cc1ccccc1CN1C(=O)S/C(=C/c2cccn2-c2ccc(C(=O)O)cc2)C1=O . Reported EC50?
A. 61.7 µM (active)

Q. State the recorded EC50 for this entry: CC(=O)[C@@]1(O)C(C)CC2C3C=C(C)C4=Cc5c(cnn5-c5ccccc5)C[C@]4(C)C3C(O)C[C@@]21C (some centres undefined)
A. > 150 µM (not active)

Q. # get_value(readout='EC50', item= O=C(COC(=O)c1ccccc1Br)Nc1nnc(-c2ccccc2)o1 )
A. 19.2 µM (active)

Q. # input compound: CCCCCCCCCCCCCCC[C@@H](O)[C@@H](N)CO [DIHYDROSPINGOSINE] ; wanted: its EC50
A. 8.91 µM (active)

Q. Look at this compound and give its reported EC50. COc1ccc(OC)c(C2C=C(C34CC5CC(CC(C5)C3)C4)N=C(S)N2)c1 (centres undefined)
A. > 150 µM (not active)

Q. Give the measured EC50 of CCCn1c(NC(=O)c2ccc(Cl)c(S(=O)(=O)N3CCCC3)c2)nc2ccccc21 .
A. 11.6 µM (active)

Q. What value of measured EC50 is listed for COC(=O)c1ccc2[nH]c3cccc(/C(=C/c4ccccc4)c4ccccc4)c3c2c1 ?
A. 3.93 µM (active)

Q. So what does the record say about EC50 for CN(Cc1cnc2nc(N)nc(N)c2n1)c1ccc(C(=O)N[C@@H](CCC(=O)O)C(=O)O)cc1 ?
A. 0.65 µM (active)

====

Give AC50 for every item shown.
# Tested System: Cytochrome P450 2C19 (Homo sapiens, UniProt P33261)
# Sequence (P33261 whole entry): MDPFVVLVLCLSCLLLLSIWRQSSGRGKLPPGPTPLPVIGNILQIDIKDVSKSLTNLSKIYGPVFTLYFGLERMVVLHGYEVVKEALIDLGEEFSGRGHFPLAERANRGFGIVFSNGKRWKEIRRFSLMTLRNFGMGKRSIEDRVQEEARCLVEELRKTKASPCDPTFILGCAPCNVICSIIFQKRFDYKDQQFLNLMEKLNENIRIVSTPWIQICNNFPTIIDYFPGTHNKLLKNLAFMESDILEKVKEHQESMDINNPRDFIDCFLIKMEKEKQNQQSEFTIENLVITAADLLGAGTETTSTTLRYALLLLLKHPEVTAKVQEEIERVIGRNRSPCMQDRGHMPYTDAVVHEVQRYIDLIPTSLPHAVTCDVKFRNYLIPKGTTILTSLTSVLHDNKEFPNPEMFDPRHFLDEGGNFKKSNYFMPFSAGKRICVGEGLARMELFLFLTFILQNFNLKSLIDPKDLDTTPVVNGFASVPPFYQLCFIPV
# Protocol: Cytochrome panel assay with activity outcomes. Panel member name: p450-cyp2c19 Compounds with AC50 equal or less than 10 uM are considered active
# Type: functional
# Measurement Parameters: read-out: AC50

Q. Kindly state the measured AC50 obtained for CCOCCCN1C(=O)CN(C2CCCCCC2)C(=O)C1c1ccc(OC)cc1 (configuration not stated) with Cytochrome P450 2C19 (Homo sapiens, UniProt P33261).
A. 25.1 µM (inconclusive)

Q. So what AC50 did NCc1ccccc1.O=C(O)NCc1ccccc1 get with Cytochrome P450 2C19 (Homo sapiens, UniProt P33261)?
A. 2.51 µM (inconclusive)

Q. Requested read-out AC50, target or system Cytochrome P450 2C19 (Homo sapiens, UniProt P33261), entry CCS(=O)(=O)NCCc1cc2ccc(C)cc2nc1O
A. 10 µM (inconclusive)

Q. Query AC50 on Cytochrome P450 2C19 (Homo sapiens, UniProt P33261) for CC(NC(=O)CSc1nc(=O)cc(N)n1CCc1ccccc1)c1ccccc1 (configuration not stated)
A. 14.1 µM (inconclusive)

Q. Form field - read-out: AC50; system: Cytochrome P450 2C19 (Homo sapiens, UniProt P33261); submitted item: Cc1ccc(/N=C/c2nc(/C=C/c3cccc([N+](=O)[O-])c3)oc2O)cc1
A. 7.94 µM (inconclusive)

Q. Recorded AC50 for O=C(O)[C@H]1[C@H]2CN[C@H](C(=O)O)[C@H]21 with Cytochrome P450 2C19 (Homo sapiens, UniProt P33261), please?
A. 31.6 µM (inconclusive)

Q. Find the measured AC50: item COCCn1c(=O)c(C)nc2cncnc21 , target or system Cytochrome P450 2C19 (Homo sapiens, UniProt P33261).
A. 39.8 µM (inconclusive)

Q. Find AC50 (Cytochrome P450 2C19 (Homo sapiens, UniProt P33261)) for the entry CCN(CC)C(=O)CSc1nnc(-c2cc3ccccc3cc2O)n1CC
A. 15.8 µM (inconclusive)

Q. So what AC50 did CCC1CC2CC(NC(C)=O)C1C2 (configuration not stated) get with Cytochrome P450 2C19 (Homo sapiens, UniProt P33261)?
A. 20 µM (inconclusive)

Q. // map CCOc1cccc(OCCCNCCCOC)c1 to recorded AC50 (system: Cytochrome P450 2C19 (Homo sapiens, UniProt P33261))
A. 28.2 µM (inconclusive)

Q. Please tell me: AC50 of S=C(Nc1ccccc1)N1CCCCC1 , system Cytochrome P450 2C19 (Homo sapiens, UniProt P33261)?
A. 17.8 µM (inconclusive)

Q. Give Cytochrome P450 2C19 (Homo sapiens, UniProt P33261) AC50 for c1ccc(Nc2ncncc2-c2ccoc2)cc1
A. 15.8 µM (inconclusive)

Q. Value wanted: AC50 (Cytochrome P450 2C19 (Homo sapiens, UniProt P33261)) of entry O=C1C2C3C=CC(CC3)C2C(=O)N1/N=C/c1ccccc1O (configuration not stated)
A. 15.8 µM (inconclusive)

Q. Report AC50 for CCOc1ccc(-n2c(N)c(C(=O)NCc3cccnc3)sc2=S)cc1 tested on Cytochrome P450 2C19 (Homo sapiens, UniProt P33261).
A. 8.91 µM (inconclusive)

Q. So what AC50 did CC(C)C(C(=O)O)N1C(=O)/C(=C/C=C/c2ccco2)SC1=S (configuration not stated) get with Cytochrome P450 2C19 (Homo sapiens, UniProt P33261)?
A. 10 µM (inconclusive)

Q. Record CCN1CCCC1CNC(=O)CSCc1nc(-c2ccccc2C)oc1C (configuration not stated) : what is its AC50 with Cytochrome P450 2C19 (Homo sapiens, UniProt P33261)?
A. 28.2 µM (inconclusive)

Q. Lab note: need AC50 with Cytochrome P450 2C19 (Homo sapiens, UniProt P33261) for entry COc1cccc(-c2nnc3sc(-c4ccc(C)cc4)nn23)c1 , please look it up.
A. 6.31 µM (inconclusive)
